neutralization IC50 by entry:
Target: HIV-1 envelope glycoprotein gp120 of virus VS001 (HIV-1)
Assay: cell-based or functional assay
OBSERVABLE: neutralization IC50 (µg/mL)

BINDER	OBSERVABLE	QUANTITY_UNIT	MEASURED
2.2.13-1 (antibody, human IgG1, kappa, V domains shown) VH: QVHLSQSGAAVTKPGASVRVSCEASGYKIRDHFIHWWRQAPGQGLQWVGWINPKTGQPNNPRQFQGRVSLTRHASWDFDTFSFYMDLKAVRSDDTAIYFCARQRSDYWDFDVWGSGTQVTVSS VL: DIQMTQSPSSLSARVGDRATITCQANGYLNWYQQRRGKAPKLLIYDGSKLERGVPARFSGSRWGQEYILTISSLQPEDVATYFCQVYEFFGPGTRLDLKR	neutralization IC50	µg/mL	1.48
3.1.17-1 (antibody, human IgG1, kappa, V domains shown) VH: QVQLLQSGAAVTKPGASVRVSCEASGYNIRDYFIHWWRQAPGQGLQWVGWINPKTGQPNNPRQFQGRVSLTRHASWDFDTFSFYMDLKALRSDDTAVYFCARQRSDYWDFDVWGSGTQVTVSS VL: DIQMTQSPSSLSARVGDTATITCQANGYLNWYQQRRGKAPKLLIYDGSKLERGVPARFSGRRWGQEYHLTINNLQPEDVATYFCQVYEFFGPGTRLDLKR	neutralization IC50	µg/mL	2.21
2.2.17-1 (antibody, human IgG1, kappa, V domains shown) VH: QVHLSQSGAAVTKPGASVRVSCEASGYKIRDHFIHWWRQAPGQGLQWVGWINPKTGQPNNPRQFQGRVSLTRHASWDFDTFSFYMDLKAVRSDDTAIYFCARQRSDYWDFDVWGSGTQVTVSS VL: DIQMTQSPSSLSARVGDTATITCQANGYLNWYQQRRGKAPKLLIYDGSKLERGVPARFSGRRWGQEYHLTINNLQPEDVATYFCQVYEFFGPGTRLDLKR	neutralization IC50	µg/mL	4.38
